Biological target: cathepsin B (Cath B) (Homo sapiens)
METRIC_NAME: Kd (µM)
Report the value in µM with no unit label.

Lookup result for "CC(C)=CCC/C(C)=C/C[C@@H]1C[C@]2(CC=C(C)C)C(=O)[C@@](CC=C(C)C)(C(=O)C(C(=O)c3ccc(O)c(O)c3)=C2O)[C@@]1(C)CCC=C(C)C" ; measured Kd: 25.6
